test system: Streptococcus sp.; test: in vitro antibacterial evaluation, MIC by broth dilution; assay type: cell-based; conditions: strain ATCC 6301; broth dilution, 18 hours at 35° C.
Item-by-item account of MIC Streptococcus pneumoniae (ATCC 6301)
recorded_metric: MIC Streptococcus pneumoniae (ATCC 6301)

compound="CC(c1ccccc1)C1NC(=O)CNC(=O)C(CO)NC(=O)C(C(O)C2CNC(=N)N2C2OC(CO)C(O)C(O)C2O)NC(=O)C(C(O)C2CNC(=N)N2)NC(=O)C(Cc2ccc(OC3OC(CO)C(OC4OC5COC(c6ccc7c(c6)OCCO7)OC5C(O)C4O)C(O)C3O)cc2)NC1=O (stereo not shown) [Example 149]" target="Streptococcus sp." recorded_metric="MIC Streptococcus pneumoniae (ATCC 6301)" result="<0.5 µg/mL"
compound="CC(c1ccccc1)C1NC(=O)CNC(=O)C(CO)NC(=O)C(C(O)C2CNC(=N)N2C2OC(CO)C(O)C(O)C2O)NC(=O)C(C(O)C2CNC(=N)N2)NC(=O)C(Cc2ccc(OC3OC(CO)C(OC4OC5COC(c6ccc(C(=O)O)cc6)OC5C(O)C4O)C(O)C3O)cc2)NC1=O (stereo not shown) [Example 141]" target="Streptococcus sp." recorded_metric="MIC Streptococcus pneumoniae (ATCC 6301)" result=">64 µg/mL"
compound="CC(c1ccccc1)C1NC(=O)CNC(=O)C(CO)NC(=O)C(C(O)C2CNC(=N)N2C2OC(CO)C(O)C(O)C2O)NC(=O)C(C(O)C2CNC(=N)N2)NC(=O)C(Cc2ccc3oc(-c4ccccc4OC4OC(CO)C(O)C(O)C4O)nc3c2)NC1=O (stereo not shown) [Example 36]" target="Streptococcus sp." recorded_metric="MIC Streptococcus pneumoniae (ATCC 6301)" result=">128 µg/mL"
compound="CC(c1ccccc1)C1NC(=O)CNC(=O)C(CO)NC(=O)C(C(O)C2CNC(=N)N2C2OC(CO)C(O)C(O)C2O)NC(=O)C(C(O)C2CNC(=N)N2)NC(=O)C(Cc2ccc(OC3OC(CO)C(OC4OC5COC(c6cccc(Oc7ccccc7)c6)OC5C(O)C4O)C(O)C3O)cc2)NC1=O (stereo not shown) [Example 170]" target="Streptococcus sp." recorded_metric="MIC Streptococcus pneumoniae (ATCC 6301)" result="<0.06 µg/mL"
